# Target or system: Transient receptor potential cation channel subfamily V member 1 (Homo sapiens)
# Sequence (Q8NER1 whole entry): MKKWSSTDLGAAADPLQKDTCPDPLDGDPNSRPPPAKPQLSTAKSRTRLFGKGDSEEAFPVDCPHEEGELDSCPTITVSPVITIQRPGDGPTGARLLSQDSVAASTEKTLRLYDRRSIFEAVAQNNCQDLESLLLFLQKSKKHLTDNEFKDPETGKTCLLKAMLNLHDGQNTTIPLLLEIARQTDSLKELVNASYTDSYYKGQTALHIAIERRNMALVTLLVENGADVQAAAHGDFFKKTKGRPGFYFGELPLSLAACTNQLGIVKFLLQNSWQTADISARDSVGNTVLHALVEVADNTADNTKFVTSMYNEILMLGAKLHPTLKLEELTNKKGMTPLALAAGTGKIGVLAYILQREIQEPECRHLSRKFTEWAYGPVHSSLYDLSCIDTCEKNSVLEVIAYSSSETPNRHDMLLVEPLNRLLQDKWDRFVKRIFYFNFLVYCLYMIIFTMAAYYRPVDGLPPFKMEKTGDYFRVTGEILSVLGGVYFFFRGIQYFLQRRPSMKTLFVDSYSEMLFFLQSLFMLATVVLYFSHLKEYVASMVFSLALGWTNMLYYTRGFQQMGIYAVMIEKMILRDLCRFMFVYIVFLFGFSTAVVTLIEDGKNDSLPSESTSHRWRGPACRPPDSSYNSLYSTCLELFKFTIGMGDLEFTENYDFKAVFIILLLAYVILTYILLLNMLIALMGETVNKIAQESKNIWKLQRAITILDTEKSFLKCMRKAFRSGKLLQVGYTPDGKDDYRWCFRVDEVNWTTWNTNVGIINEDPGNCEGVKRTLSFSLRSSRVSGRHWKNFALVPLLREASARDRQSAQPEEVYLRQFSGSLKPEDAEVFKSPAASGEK
# Procedure summary: Antagonist activity at human TRPV1 assessed as inhibition of calcium influx
pIC50: −log10 of the molar value.
Assay endpoint: pIC50

CC(C)(C)c1ccc2c(c1)C(NC(=O)Nc1cccc3[nH]ncc13)CCN2Cc1ccccc1 (stereo not given); 6.92
O=C(Nc1cccc2[nH]ncc12)NC1CCOc2c1cccc2C(F)(F)F (stereo not given); 8.30

P = O=C(Nc1cccc2[nH]ncc12)NC1CCN(Cc2ccccc2)c2ccc(F)cc21 (stereo not given)
Q = CC(C)(C)c1cccc2c1OCC[C@@H]2NC(=O)Nc1cccc2[nH]ncc12
R = COc1ccc2c(c1)C(NC(=O)Nc1cccc3[nH]ncc13)CCN2Cc1ccccc1 (stereo not given)
S = CC(C)CCN1CCC(NC(=O)Nc2cccc3[nH]ncc23)c2cccc(Cl)c21 (stereo not given)
T = O=C(Nc1cccc2[nH]ncc12)NC1CCOc2ccc(F)cc21 (stereo not given)
Q: // smallest pIC50 at index 0, largest at the end Answer format: the labels, in the requested order.
Result: T, R, P, Q, S

---

# Target or system: Transient receptor potential cation channel subfamily V member 1 (Homo sapiens)
# Procedure summary: Antagonist activity at human TRPV1 assessed as inhibition of calcium influx
pIC50: −log10 of the molar value.
Assay endpoint: pIC50

CN1CCC(NC(=O)Nc2cccc3[nH]ncc23)c2ccc(C(C)(C)C)cc21 (stereo not given); 6.94
CN1CCC(NC(=O)Nc2cccc3[nH]ncc23)c2cccc(C(C)(C)C)c21 (stereo not given); 8.22
COc1ccc2c(c1)C(NC(=O)Nc1cccc3[nH]ncc13)CCN2CC1CCCCC1 (stereo not given); 6.71
O=C(Nc1cccc2[nH]ncc12)N[C@H]1CCOc2cc(C(F)(F)F)ccc21; 7.37
O=C(Nc1cccc2[nH]ncc12)NC1CCOc2ccccc21 (stereo not given); 6.63

1 = CN1CCC(NC(=O)Nc2cccc3[nH]ncc23)c2cc(C(C)(C)C)ccc21 (stereo not given)
2 = CN1CCC(NC(=O)Nc2cccc3[nH]ncc23)c2ccccc21 (stereo not given)
Q: Given the listed records, identify the one among 1 and 2 with higher pIC50. Your answer should be the label of the entry you select.
Result: 2

I = CC(C)(C)c1cccc2c1OCC[C@H]2NC(=O)Nc1cccc2[nH]ncc12
II = O=C(Nc1cccc2[nH]ncc12)NC1CCOc2c(OC(F)(F)F)cccc21 (stereo not given)
Q: Hey, which is lower on measured pIC50, I or II ? Record your answer as the label of the chosen record.
Result: II
(II: 8.30, I: 8.52)

---

# Target or system: CYP3A4 (Homo sapiens)
# Sequence (P08684 whole entry): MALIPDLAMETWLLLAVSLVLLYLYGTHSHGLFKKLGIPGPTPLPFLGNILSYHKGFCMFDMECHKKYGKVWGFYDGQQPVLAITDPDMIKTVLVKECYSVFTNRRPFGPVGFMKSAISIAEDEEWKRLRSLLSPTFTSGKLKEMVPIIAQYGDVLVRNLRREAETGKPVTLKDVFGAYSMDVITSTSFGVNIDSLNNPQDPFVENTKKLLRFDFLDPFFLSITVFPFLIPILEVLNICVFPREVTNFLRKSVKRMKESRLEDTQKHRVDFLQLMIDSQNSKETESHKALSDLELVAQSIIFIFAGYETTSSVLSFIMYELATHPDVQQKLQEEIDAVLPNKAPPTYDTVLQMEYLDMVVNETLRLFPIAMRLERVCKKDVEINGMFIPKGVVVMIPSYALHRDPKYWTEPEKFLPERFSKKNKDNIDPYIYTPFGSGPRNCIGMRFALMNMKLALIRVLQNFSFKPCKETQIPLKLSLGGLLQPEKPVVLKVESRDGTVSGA
# Procedure summary: Inhibition of CYP3A4 at 10 uM
# Type: ADME
Assay endpoint: inhibition at 10 µM (%)

CN1CCC(NC(=O)Nc2cccc3[nH]ncc23)c2ccc(F)cc21 (configuration not stated); 66
CN1CCC(NC(=O)Nc2cccc3[nH]ncc23)c2ccc(C(F)(F)F)cc21 (configuration not stated); 47
CN1CCC(NC(=O)Nc2cccc3[nH]ncc23)c2ccccc21 (configuration not stated); 65
COc1ccc2c(c1)C(NC(=O)Nc1cccc3[nH]ncc13)CCN2Cc1ccccc1 (configuration not stated); 97

P = O=C(Nc1cccc2[nH]ncc12)NC1CCN(Cc2ccccc2)c2ccccc21 (configuration not stated)
Q = COc1ccc2c(c1)C(NC(=O)Nc1cccc3[nH]ncc13)CCN2C (configuration not stated)
Q: Looking at P and Q , which one comes out lower in inhibition at 10 µM terms? Reply briefly: the label of your chosen item.
Result: Q
(Q: 59%, P: 94%)

---

# Target or system: Transient receptor potential cation channel subfamily V member 1 (Homo sapiens)
# Procedure summary: Antagonist activity at human TRPV1 assessed as inhibition of calcium influx
pIC50: −log10 of the molar value.
Assay endpoint: pIC50

A selection of reference data follows.
O=C(Nc1cccc2[nH]ncc12)N[C@@H]1CCOc2cc(C(F)(F)F)ccc21; 8.40
CC(C)(C)c1ccc2c(c1)OCC[C@@H]2NC(=O)Nc1cccc2[nH]ncc12; 5.92
O=C(Nc1cccc2[nH]ncc12)NC1CCOc2cc(OC(F)(F)F)ccc21 (centres undefined); 8.10
COc1ccc2c(c1)C(NC(=O)Nc1cccc3[nH]ncc13)CCN2C (centres undefined); 5.86

A = CC(C)(C)c1cccc2c1OCCC2NC(=O)Nc1cccc2[nH]ncc12 (centres undefined)
B = O=C(Nc1cccc2[nH]ncc12)NC1CCOc2c1cccc2N1CCCCC1 (centres undefined)
C = O=C(Nc1cccc2[nH]ncc12)NC1CCN(Cc2ccccc2)c2ccccc21 (centres undefined)
D = CC(C)(C)c1ccc2c(c1)OCC[C@H]2NC(=O)Nc1cccc2[nH]ncc12
Q: Kindly order the items shown according to pIC50, from the highest value down. Note for the reader: the ranking is given by listing the labels in the order requested.
Result: A, B, D, C
(A: 8.30, B: 7.80, D: 7.51, C: 7.15)

---

# Procedure summary: Ratio of drug uptake in brain to plasma in rat
# Assay type: ADME
Assay endpoint: Kp
Please reply with the number alone, leaving off any unit.

Q: Need Kp of CC(C)(C)c1cccc2c1OCCC2NC(=O)Nc1cccc2[nH]ncc12 (stereo unspecified) , thanks.
Result: 0.42

---

# Target or system: Transient receptor potential cation channel subfamily V member 1 (Homo sapiens)
# Procedure summary: Antagonist activity at human TRPV1 assessed as inhibition of calcium influx
Assay endpoint: IC50 (µM)

O=C(Nc1cccc2[nH]ncc12)NC1CCOc2c1cccc2N1CCOCC1 (stereo not drawn); 0.11

I = CC(C)(C)c1ccc2c(c1)OCCC2NC(=O)Nc1cccc2[nH]ncc12 (stereo not drawn)
II = O=C(Nc1cccc2[nH]ncc12)NC1CCOc2c(C3CCCCC3)cccc21 (stereo not drawn)
Q: Please compare: I and II . Report which one has the smaller IC50 value. # answer = label of selected item
Result: II
